Examples of compounds with documented inhibition at 10 µM follow.
System tested: p38α (Homo sapiens)
Construct: p38 MAP Kinases are recombinant human full-length proteins with an amino-terminal GST fusion; GST (N); purchased Upstate Biotechnology Inc; host or cells: E. coli
Sequence (Q16539 whole entry, the tested form may be a part): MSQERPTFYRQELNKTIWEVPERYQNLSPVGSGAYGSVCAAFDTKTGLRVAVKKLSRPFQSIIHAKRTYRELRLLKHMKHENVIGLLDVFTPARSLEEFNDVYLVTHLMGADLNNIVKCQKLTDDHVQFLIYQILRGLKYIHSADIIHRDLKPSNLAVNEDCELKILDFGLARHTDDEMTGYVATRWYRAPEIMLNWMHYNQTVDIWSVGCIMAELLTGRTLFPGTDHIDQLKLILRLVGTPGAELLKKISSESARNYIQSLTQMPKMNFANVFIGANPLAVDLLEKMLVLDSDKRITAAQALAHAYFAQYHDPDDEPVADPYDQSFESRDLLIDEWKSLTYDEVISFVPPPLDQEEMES
Test protocol: p38 MAP Kinase assay: inhibition of ATF2 phosphorylation, ELISA
Assay type: biochemical
Stated conditions: 10 uM; substrate ATF2; read-out: [ENZ] P38 ALPHA, PCT INH, ELISA (10 uM;ATF2) (Percent)

Some solved entries appear below for comparison.
Specify inhibition at 10 µM for CC1CCCN(c2cc(C(=O)Nc3ccc(OCCN4CCOCC4)c4ccccc34)ccn2)C1 (stereo not shown) [Compound B126] , system p38α (Homo sapiens).
85%

Specify inhibition at 10 µM for CC1CCCN1c1cc(C(=O)Nc2ccc(OCCN3CCOCC3)c3ccccc23)ccn1 (stereo not shown) [Compound B130] , system p38α (Homo sapiens).
88.5%

Specify inhibition at 10 µM for CC1CCN(c2cccc(C(=O)Nc3ccc(OCCN4CCOCC4)c4ccccc34)n2)CC1 [Compound B143] , system p38α (Homo sapiens).
32%

---
Specify inhibition at 10 µM for O=C(Nc1ccc(OCCN2CCOCC2)c2ccccc12)c1cccc(N2CCSC2)n1 [Compound B138] , system p38α (Homo sapiens).
-36%
